# Tested on: Adipocyte
# Protocol details: Effect on 2-deoxy-D-[1-3H]glucose transport in Sprague-Dawley rat adipocytes at 10 uM in presence of insulin by liquid scintillation counting
# Format: functional
Entries whose Activity is below 6000 disintegrations/minute take yes (1); entries at or above 6000 disintegrations/minute take no (0).

COc1cc(S(=O)(=O)NCCc2ccc(S(=O)(=O)NC(=O)NC3CCC(C)CC3)cc2)ccc1NC(C)=O (stereo unspecified); no (0)
CC1CCC(NC(=O)NS(=O)(=O)c2ccc(CCNS(=O)(=O)c3ccc(Br)cc3)cc2)CC1 (stereo unspecified); no (0)
Cc1ccc(NC(=S)NS(=O)(=O)c2ccc(CCNS(=O)(=O)c3ccccc3)cc2)cc1; yes (1)
CC1CCC(NC(=O)NS(=O)(=O)c2ccc(CCNS(=O)(=O)c3ccc(Cl)cc3)cc2)CC1 (stereo unspecified); no (0)
Cc1ccc(S(=O)(=O)NCCc2ccc(S(=O)(=O)NC(=S)Nc3ccc(Cl)cc3)cc2)cc1; yes (1)

Okay, now this compound:
Does the reported Activity of the following compound sit strictly below 6000 disintegrations/minute? Cc1ccc(NC(=S)NS(=O)(=O)c2ccc(CCNS(=O)(=O)c3ccc(C)cc3)cc2)cc1 yes (1)
